target: hNLRP3 (Homo sapiens, UniProt Q96P20); construct: THP-1 cells were purchased from the American Type Culture Collection; host or cells: THP-1 cells, PMA-differentiated; test: IL-1β production in PMA-differentiated THP-1 cells stimulated with gramicidin; type: cell-based; settings: gramicidin 5 μM, IL-1β in supernatant, Table 2
Sequence (Q96P20 whole entry): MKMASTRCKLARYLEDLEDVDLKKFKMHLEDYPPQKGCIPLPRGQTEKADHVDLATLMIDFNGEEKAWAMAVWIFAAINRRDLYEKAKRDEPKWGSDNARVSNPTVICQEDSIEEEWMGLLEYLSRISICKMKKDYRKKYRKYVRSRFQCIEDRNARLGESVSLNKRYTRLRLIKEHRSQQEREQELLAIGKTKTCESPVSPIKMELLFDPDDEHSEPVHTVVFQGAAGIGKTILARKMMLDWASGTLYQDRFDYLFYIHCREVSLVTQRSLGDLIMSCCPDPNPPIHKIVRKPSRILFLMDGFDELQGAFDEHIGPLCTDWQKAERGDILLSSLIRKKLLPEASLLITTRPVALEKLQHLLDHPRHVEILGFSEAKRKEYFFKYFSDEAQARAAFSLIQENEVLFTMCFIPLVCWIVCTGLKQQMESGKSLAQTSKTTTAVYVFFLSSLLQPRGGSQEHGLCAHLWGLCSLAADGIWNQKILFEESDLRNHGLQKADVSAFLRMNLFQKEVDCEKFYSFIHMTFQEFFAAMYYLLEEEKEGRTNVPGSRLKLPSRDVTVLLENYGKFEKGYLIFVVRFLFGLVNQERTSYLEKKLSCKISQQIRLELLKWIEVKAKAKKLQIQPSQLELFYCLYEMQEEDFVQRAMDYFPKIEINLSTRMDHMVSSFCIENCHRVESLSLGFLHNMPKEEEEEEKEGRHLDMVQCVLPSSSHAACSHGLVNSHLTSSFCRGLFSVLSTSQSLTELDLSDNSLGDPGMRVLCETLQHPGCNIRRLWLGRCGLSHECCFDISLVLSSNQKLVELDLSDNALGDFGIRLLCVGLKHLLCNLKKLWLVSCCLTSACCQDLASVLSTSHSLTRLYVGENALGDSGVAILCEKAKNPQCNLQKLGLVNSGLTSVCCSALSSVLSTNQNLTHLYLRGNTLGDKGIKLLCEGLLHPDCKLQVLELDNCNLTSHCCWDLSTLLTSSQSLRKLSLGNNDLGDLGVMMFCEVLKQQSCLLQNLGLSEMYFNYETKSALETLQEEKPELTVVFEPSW
Items are presented alongside their recorded IC50.

INSERT INTO measurements (smiles_notation, measurement) VALUES
  ('O=C(Nc1c2c(cc3c1CCC3)CCC2)NS(=O)(=O)c1ncc(C2(O)CCC2)s1', '< 1000 nM');

-- ask Param item = CC(C)(O)c1cnc(S(=O)(=O)NC(=O)Nc2c3c(c(Cl)c4c2CCC4)CCC3)s1 ; retrieve measured IC50.
-- reply < 1000 nM

-- ask Param item = Cc1nc(S(=O)(=O)NC(=O)Nc2c(C(C)C)ccc(F)c2C(C)C)sc1C(C)(C)O ; retrieve measured IC50.
-- reply < 1000 nM

-- ask Param item = CC(C)c1ccc(F)c(C(C)C)c1NC(=O)NS(=O)(=O)c1ncc(C2(O)CCC2)s1 ; retrieve measured IC50.
-- reply 5000 to 15000 nM

-- ask Param item = CC(C)(O)c1cc(S(=O)(=O)NC(=O)Nc2c3c(cc4c2CCC4)CCC3)oc1Cl ; retrieve measured IC50.
-- reply < 1000 nM

-- ask Param item = CC(C)c1ccc(F)c(C(C)C)c1NC(=O)NS(=O)(=O)c1nc(C(C)(C)O)cs1 ; retrieve measured IC50.
-- reply 1000 to 5000 nM

-- ask Param item = O=C(Nc1c2c(c(F)c3c1CCC3)CCC2)NS(=O)(=O)c1cc(C2(O)CC2)co1 ; retrieve measured IC50.
-- reply < 1000 nM

-- ask Param item = Cc1sc(S(=O)(=O)NC(=O)Nc2c(C(C)C)cc(F)cc2C(C)C)cc1C(C)(C)O ; retrieve measured IC50.
-- reply < 1000 nM

* * *

target: hNLRP3 (Homo sapiens); construct: THP-1 cells were purchased from the American Type Culture Collection; host or cells: THP-1 cells, PMA-differentiated; experiment: IL-1β production in PMA-differentiated THP-1 cells stimulated with gramicidin; format: cell-based; details: gramicidin 5 μM, IL-1β in supernatant, Table 1
measurement_kind: IC50

INSERT INTO results (smiles_notation, measurement_kind, measurement) VALUES
  ('CC(C)c1cc(F)cc(C(C)C)c1NC(=O)NS(=O)(=O)c1cc(C(C)(C)O)co1', 'IC50', '< 1000 nM'),
  ('CC(C)c1cc(C(N)=O)cc(C(C)C)c1NC(=O)NS(=O)(=O)c1cc(C(C)(C)O)co1', 'IC50', '15000 to 35000 nM'),
  ('CC(C)c1cc(C#N)cc(C(C)C)c1NC(=O)NS(=O)(=O)c1cc(C(C)(C)O)co1', 'IC50', '< 1000 nM');

Next item in the queue.
-- ask Request: IC50, test system hNLRP3 (Homo sapiens), entry CC(C)(O)c1coc(S(=O)(=O)NC(=O)Nc2c3c(c(C#N)c4c2CCC4)CCC3)c1
-- reply < 1000 nM

* * *

molecular target: hNLRP3 (Homo sapiens); construct: THP-1 cells were purchased from the American Type Culture Collection; host or cells: THP-1 cells, PMA-differentiated; assay: IL-1β production in PMA-differentiated THP-1 cells stimulated with gramicidin; format: cell-based; settings: gramicidin 5 μM, IL-1β in supernatant, Table 2
pIC50: −log10 of the molar value.
measurement_kind: pIC50

Below are worked cases with known answers.
INSERT INTO assay_data (smiles_notation, measurement_kind, measurement) VALUES
  ('CC(C)(O)c1ncsc1S(=O)(=O)NC(=O)Nc1c2c(cc3c1CCC3)CCC2', 'pIC50', '5.30 to 6.00'),
  ('CC(C)c1cccc(C(C)C)c1NC(=O)NS(=O)(=O)c1cc(C2(O)CC2)cs1', 'pIC50', '> 6.00'),
  ('Cc1nc(S(=O)(=O)NC(=O)Nc2c(C(C)C)cc(Cl)cc2C(C)C)sc1C(C)(C)O', 'pIC50', '5.30 to 6.00'),
  ('CCc1cc(C#N)cc(CC)c1NC(=O)NS(=O)(=O)c1ncc(C(C)(C)O)s1', 'pIC50', '5.30 to 6.00'),
  ('CC(C)(O)c1ccc(S(=O)(=O)NC(=O)Nc2c3c(c(F)c4c2CCC4)CCC3)s1', 'pIC50', '> 6.00');

-- ask Param item = CC(C)c1cc(F)cc(C(C)C)c1NC(=O)NS(=O)(=O)c1nc(C(C)(C)O)cs1 ; retrieve measured pIC50.
-- reply 5.30 to 6.00

-- ask Param item = CCc1cc(Cl)cc(CC)c1NC(=O)NS(=O)(=O)c1cc(C(C)(C)O)cs1 ; retrieve measured pIC50.
-- reply 5.30 to 6.00

-- ask Param item = CC(C)c1ccc(F)c(C(C)C)c1NC(=O)NS(=O)(=O)c1cc(C(C)(C)O)c(Cl)s1 ; retrieve measured pIC50.
-- reply 5.30 to 6.00
